target: BRD4-BD1 (44-164) (Homo sapiens (Human), UniProt O60885); assay: Alphascreen binding assay BRD4-BD1; conditions: BRD4(1) H4; read-out: Biochemical activity (IC50 μM) BRD4(1) H4
Entries and their measured IC50 follow.

molecule | assayedSystem | IC50
Cc1n[nH]c(C)c1-c1cnc2ccn(CC3CCC(F)(F)CC3)c2c1 | BRD4-BD1 (44-164) (Homo sapiens (Human), UniProt O60885) | 1 to 10 µM
COc1ncc(F)cc1C(OC)c1c[nH]c2ncc(-c3c(C)noc3C)cc12 (stereo not drawn) | BRD4-BD1 (44-164) (Homo sapiens (Human), UniProt O60885) | < 1 µM
Cc1onc(NC(=O)OC(C)(C)C)c1-c1cnc2ccn(CC3CCC(F)(F)CC3)c2c1 | BRD4-BD1 (44-164) (Homo sapiens (Human), UniProt O60885) | 10 to 200 µM
COC(c1c[nH]c2ncc(-c3c(C)noc3C)cc12)C1CCC(F)(F)CC1 (stereo not drawn) | BRD4-BD1 (44-164) (Homo sapiens (Human), UniProt O60885) | < 1 µM
Cc1noc(C)c1-c1cnc2[nH]cc(Sc3ccccc3)c2c1 | BRD4-BD1 (44-164) (Homo sapiens (Human), UniProt O60885) | < 1 µM
CCc1[nH]c2ncc(-c3c(C)noc3C)cc2c1C(O)C1CCC(F)(F)CC1 (stereo not drawn) | BRD4-BD1 (44-164) (Homo sapiens (Human), UniProt O60885) | < 1 µM
Cc1noc(C)c1-c1cnc2c(C#CCO)cn(S(=O)(=O)c3ccccc3)c2c1 | BRD4-BD1 (44-164) (Homo sapiens (Human), UniProt O60885) | < 1 µM
Cc1noc(C)c1-c1cnc2c(-c3cnn(C)c3)cn(C(CC#N)C3CCCC3)c2c1 (stereo not drawn) | BRD4-BD1 (44-164) (Homo sapiens (Human), UniProt O60885) | < 1 µM
Cc1noc(C)c1-c1cnc2ccn(CC3CCC(F)(F)CC3)c2c1 | BRD4-BD1 (44-164) (Homo sapiens (Human), UniProt O60885) | < 1 µM

# credit: patent US10519177B2
